# Tested on: DIPGX9 (diffuse intrinsic pontine glioma line)
# protocol: growth inhibition (% activity, log2 RLU normalised to DMSO / staurosporine); higher = more growth inhibition
# measurement.setup: 33 µM
reported.endpoint: growth inhibition (%)
Lab book: enter the figure in %, no units written.

Which growth inhibition is reported with DIPGX9 for this entry: CC[C@H](C)C(=O)O[C@H]1CCC=C2C=C[C@H](C)[C@H](CC[C@@H]3C[C@@H](O)CC(=O)O3)[C@H]21 ? 3.1

Same lookup for CCn1nc(C(=O)O)c(=O)c2cc3c(cc21)OCO3 , please. -0.854

Next: C=C(c1ccc(C(=O)O)cc1)c1cc2c(cc1C)C(C)(C)CCC2(C)C 10.4

Cool, now Cc1ccc(-n2[nH]c(C)c(N=Nc3cccc(-c4cccc(C(=O)O)c4)c3O)c2=O)cc1C -1.59

What do you have for c1cc(CN2CCCNCCNCCCNCC2)ccc1CN1CCCNCCNCCCNCC1 ? 2.55

And COC1C(O)CC(=O)OC(C)CC=CC=CC(OC2CCC(N(C)C)C(C)O2)C(C)CC(CC=O)C1OC1OC(C)C(OC2CC(C)(O)C(O)C(C)O2)C(N(C)C)C1O (centres undefined) ? 0.622

Note, next up: O=C1c2cccc3c2[C@H](CCC3)CN1[C@@H]1CN2CCC1CC2 0.719

Then what about the compound CN(C)CCc1c[nH]c2ccc(CS(=O)(=O)N3CCCC3)cc12 ? 1.71

And the next one, C[C@@H](O)[C@H]1C(=O)N2C(C(=O)O)=C(S[C@@H]3CN[C@H](CNS(N)(=O)=O)C3)[C@H](C)[C@H]12 ? -0.371

Also S=c1[nH]cnc2nc[nH]c12 , if possible. 10.6

Please give the result for CC1OC(n2cc(F)c(=O)[nH]c2=O)C(O)C1O (centres undefined) too. 1.19

Also COc1cc2c(cc1Cc1cccc(Cl)c1F)c(=O)c(C(=O)O)cn2[C@H](CO)C(C)C ? 3.93

// same read-out, input: CCOC(=O)c1ccc(N)cc1 -2.99

Then this compound: CCc1cc(C(N)=S)ccn1 -2.73

Another: C=C1CC[C@H](O)C/C1=C/C=C1\CCC[C@]2(C)[C@@H]([C@H](C)/C=C/[C@H](C)C(C)C)CC[C@@H]12 3.65

Another compound to check: O=C(N[C@H](CO)[C@H](O)c1ccc([N+](=O)[O-])cc1)C(Cl)Cl -0.0638

Another compound to check: CCOC(=O)C1=C[C@]2(CC)CCCN3CCc4c(n1c1ccccc41)[C@@H]32 0.728

Next record, please: COC(=O)C1=C(C)NC(C)=C(C(=O)OCCN(C)Cc2ccccc2)C1c1cccc([N+](=O)[O-])c1 (centres undefined) 2.12

Queued: CC(=O)OCC(=O)[C@@]12N=C(C)O[C@@H]1C[C@H]1[C@@H]3CCC4=CC(=O)C=C[C@]4(C)[C@H]3[C@@H](O)C[C@@]12C 4.71

Quick one: CCN1CC(CCN2CCOCC2)C(c2ccccc2)(c2ccccc2)C1=O (centres undefined) 1.56

Also NC[C@@H]1O[C@H](O[C@H]2[C@@H](O)[C@H](O[C@@H]3[C@@H](O)[C@H](N)C[C@H](N)[C@H]3O[C@H]3O[C@H](CN)[C@@H](O)[C@H](O)[C@H]3N)O[C@@H]2CO)[C@H](N)[C@@H](O)[C@@H]1O , if possible. 0.402

Another compound: NC1CCN(c2c(F)cc3c(=O)c(C(=O)O)cn(C4CC4)c3c2Cl)C1 (centres undefined) 1.33

Lookup COc1ccc(Cl)cc1C(=O)NCCc1ccc(S(=O)(=O)NC(=O)NC2CCCCC2)cc1 -1.16

Thanks! And O=C(O)c1cc(-c2ccccc2)nc2ccccc12 ? 2.04

Follow-up item: O=C(O)c1cccnc1Nc1cccc(C(F)(F)F)c1 0.51

Same thing, different compound: C[C@](N)(Cc1ccc(O)c(O)c1)C(=O)O -0.748

Next entry: CC(=O)NS(=O)(=O)c1ccc(NC(=O)c2ccccc2C(=O)O)cc1 -1.16

Another compound to look at: CN1C(CCl)Nc2cc(Cl)c(S(N)(=O)=O)cc2S1(=O)=O (centres undefined) 0.87

Also Oc1c(Br)cc(Br)c2cccnc12 ? 1.88

Check CN(C)CCOc1ccc(/C(=C(/CCCl)c2ccccc2)c2ccccc2)cc1 too. 0.45

Note, next up: Cc1cc(C)nc(NS(=O)(=O)c2ccc(N)cc2)n1 -1.22

Further, for O=C(O)C[C@H](O)C[C@H](O)/C=C/c1c(C2CC2)nc2ccccc2c1-c1ccc(F)cc1 ? 7.33

How about this compound: C[C@]12CCC(=O)C=C1CC[C@@H]1[C@@H]2[C@@H](O)C[C@@]2(C)[C@H]1CC[C@]2(O)C(=O)CO 4.32

Follow-up entry: CCN(CC)CCOCCOC(=O)C(CC)(CC)c1ccccc1 2.65

One more compound: C[C@H]1O[C@H](O[C@H]2[C@H](O)[C@@H](O)[C@@H](O[C@H]3[C@H](O)[C@@H](O)C(O)O[C@@H]3CO)O[C@@H]2CO)[C@H](O)[C@@H](O)[C@@H]1N[C@H]1C=C(CO)[C@@H](O)[C@H](O)[C@H]1O (some centres undefined) -1.81

Further, for Nc1ccn(C[C@@H](CO)OCP(=O)(O)O)c(=O)n1 ? 1.05

// same read-out, input: COc1nc(N)nc2c1ncn2[C@@H]1O[C@H](CO)[C@@H](O)[C@@H]1O 1.18

Now this one: Clc1cccc(Cl)c1NC1=NCCN1 0.614

Next record, please: N=C(N)c1ccc(OCCCCCOc2ccc(C(=N)N)cc2)cc1 13.9

###

# Tested on: SUDIPGXIII (diffuse intrinsic pontine glioma line)
# protocol: growth inhibition (% activity, log2 RLU normalised to DMSO / staurosporine); higher = more growth inhibition
# measurement.setup: 33 µM
reported.endpoint: growth inhibition (%)
Please reply with the bare figure in % and do not write the unit itself.

Give recorded growth inhibition with SUDIPGXIII for the following compound: C[C@]12C=CC(=O)C=C1CC[C@H]1[C@@H]3C[C@@H](O)[C@](O)(C(=O)CO)[C@@]3(C)C[C@H](O)[C@@]12F 1.54

Do the same for CC12CC3CC(C)(C1)CC(N)(C3)C2 please 1.06

Same question, CC(C)[C@H](N)C(=O)OCC(CO)OCn1cnc2c(=O)[nH]c(N)nc21 (stereo partly specified) this time 1.45

Now the compound O=C(CCCCCCC(=O)Nc1ccccc1)NO 28

Again, but for N#Cc1ccc(C(c2ccc(C#N)cc2)n2cncn2)cc1 1.04

Same thing, different compound: Nc1cccc2c1CN(C1CCC(=O)NC1=O)C2=O (stereo unspecified) -0.527

Item: COC(=O)/C=C/C(=O)OC 1.57

Please give the result for CNNCc1ccc(C(=O)NC(C)C)cc1 too. -0.216

Repeat for the following compound: O.O.O.O.O=C([O-])CC(O)(CC(=O)[O-])C(=O)[O-].[Li+].[Li+].[Li+] -0.99

Here is the next compound: CC(C)CN(C[C@@H](O)[C@H](Cc1ccccc1)NC(=O)O[C@H]1CCOC1)S(=O)(=O)c1ccc(N)cc1 0.567

Same again, this time with O=C(O)CCNC(=O)c1ccccc1 1.01

###

Exercise: state measured growth inhibition for each of the compounds provided.
# Test system: SUDIPGXIII
# protocol: growth inhibition (% activity, log2 RLU normalised to DMSO / staurosporine); higher = more growth inhibition
# measurement.setup: 33 µM
Give your result in % as a bare value.

Recorded growth inhibition for CNC(=O)c1ccccc1Sc1ccc2c(/C=C/c3ccccn3)n[nH]c2c1 , please? 5.66

Also check N#Cc1c(N(CC(=O)O)CC(=O)O)sc(C(=O)O)c1CC(=O)O -2.77

Next up: CCN1CC(CCN2CCOCC2)C(c2ccccc2)(c2ccccc2)C1=O (stereo not drawn) -0.683

Similarly, COc1ccc(CN2CCN(C(c3ccc(F)cc3)c3ccc(F)cc3)CC2)c(OC)c1OC ? -11.1

Would you kindly repeat that for CCCC(C(=O)OCCN(CC)CC)(c1ccccc1)c1ccccc1 ? 2.55

Check COc1ccc(O)cc1 too. 0.564

Moving on to COc1cc(NC(C)CCCN)c2ncccc2c1 (stereo not drawn) 11.9

Now the same for CCCCc1oc2ccccc2c1C(=O)c1cc(I)c(OCCN(CC)CC)c(I)c1 7.05

// query: C[N+]1(C)[C@@H]2C[C@@H](OC(=O)C(O)(c3cccs3)c3cccs3)C[C@H]1[C@@H]1O[C@@H]12 0.889

What do we get for CS(=O)(=O)c1ccc([C@@H](O)[C@@H](CF)NC(=O)C(Cl)Cl)cc1 ? 38

And then Cc1ncc([N+](=O)[O-])n1CC(O)CCl (stereo not drawn) , what is it? 0.346

Now try CN1CC(=O)NC1=N . 1.35

Proceed to CC(C)(Oc1ccc(CCNC(=O)c2ccc(Cl)cc2)cc1)C(=O)O -16.6

Query C[C@@H](O)[C@H]1C(=O)N2C(C(=O)O)=C(S[C@@H]3CN[C@H](CNS(N)(=O)=O)C3)[C@H](C)[C@H]12 next -1.69

Follow-up entry: CC(c1cc2ccccc2s1)N(O)C(N)=O (stereo not drawn) 0.685

Also COc1cc(OC)c(C(=O)CCCN2CCCC2)c(OC)c1 ? 2.53

One more compound: C[C@H](Cc1cc2c(c(C(N)=O)c1)N(CCCO)CC2)NCCOc1ccccc1OCC(F)(F)F -1.83

Cool, now CCN(CC)C(=O)C1(c2ccccc2)CC1CN (stereo not drawn) 0.599

Then this compound: CCCS(=O)(=O)Nc1ccc(F)c(C(=O)c2c[nH]c3ncc(-c4ccc(Cl)cc4)cc23)c1F 1.79

Query CN1CCC(=C2c3ccccc3CCc3sccc32)CC1 next 1.69

Please do the same for CCCCCCNC(=O)n1cc(F)c(=O)[nH]c1=O as well. 2.43

Would you mind doing CCOC(=O)c1c(C)n(C)c2ccc(O)cc12 as well? -1.54

Next compound up: Clc1ccc(C(Cn2ccnc2)OCc2csc3c(Cl)cccc23)c(Cl)c1 (stereo not drawn) 5.27

And then CCOc1cc(N)c(Cl)cc1C(=O)NCC1CN(Cc2ccc(F)cc2)CCO1 (stereo not drawn) , what is it? 1.85

Can you handle N#C[C@@H]1C[C@@H]2C[C@@H]2N1C(=O)[C@@H](N)C12CC3CC(CC(O)(C3)C1)C2 next? 7.88

Now this one: O=C(Nc1ccc([N+](=O)[O-])cc1Cl)c1cc(Cl)ccc1O 61.3

Now consider COc1c(C)c2c(c(O)c1C/C=C(\C)CCC(=O)OCCN1CCOCC1)C(=O)OC2 and answer again. 7.66

Note, next up: C[C@H](CCC(=O)O)[C@H]1CC[C@H]2[C@@H]3CC[C@@H]4C[C@H](O)CC[C@]4(C)[C@H]3CC[C@]12C 1.26

Try the compound COc1ccc(Cl)cc1C(=O)NCCc1ccc(S(=O)(=O)NC(=O)NC2CCCCC2)cc1 -1.12

And then CN1CCN(CCCN2c3ccccc3Sc3ccc(C(F)(F)F)cc32)CC1 , what is it? 0.946

Further, for Cc1nc2n(c(=O)c1CCN1CCC(c3noc4cc(F)ccc34)CC1)CCCC2 ? 1.25

Here is the next compound: CN(C)CC/C=C1/c2ccccc2COc2ccc(CC(=O)O)cc21 0.825

Also need [I-].[K+] , thanks. -4.16

What do you have for NC(=O)c1ncn([C@@H]2O[C@H](CO)[C@@H](O)[C@H]2O)c1N ? -1.11

Entry O=C(O)c1cc(-c2ccccc2)nc2ccccc12 please 0.975

Another compound to look at: Nc1ccc(C(=O)NCC(=O)O)cc1 0.0926

And what about the compound CO[C@H]1C(=O)[C@]2(C)[C@@H](OC)C[C@H]3OC[C@@]3(OC(C)=O)[C@H]2[C@H](OC(=O)c2ccccc2)[C@]2(O)C[C@H](OC(=O)[C@H](O)[C@@H](NC(=O)OC(C)(C)C)c3ccccc3)C(C)=C1C2(C)C ? 2.32

Let us now turn to CCOc1cc(CC(=O)N[C@@H](CC(C)C)c2ccccc2N2CCCCC2)ccc1C(=O)O -1.55

Further, for Cc1cc(C(C)(C)C)c(O)c(C)c1CC1=NCCN1 ? 0.459

Ok, now CN(Cc1ccc(C(C)(C)C)cc1)Cc1cccc2ccccc12 1.08

Then this compound: Nc1ccc(C(=O)O)c(O)c1 -1.06

Also need CC(C)Cn1cnc2c(N)nc3ccccc3c21 , thanks. 0.156

Proceed to COc1ccccc1OCCNCC(O)COc1cccc2[nH]c3ccccc3c12 (stereo not drawn) 2.05

Sourced from the supplement of paper PMC8253809
